The origin of these recorded values is patent EP1192125B9.

Give measured responders at 30 mg/kg for each item. Keep answers brief.
System: DBA/2 mice
Test: DBA2 mouse model of anticonvulsant efficacy (sound-induced seizures)
Format: in vivo
Conditions: Mus musculus; 30 mg/kg PO; 2h; read-out: Anticonvulsant % Protect* 2h
One number for each entry, in %.

| compound | readingUnit | endpointResult |
| --- | --- | --- |
| COCC(C)C[C@H](CN)CC(=O)O (stereo partly shown) | % | 0 |
| CCC[C@@H](C)C[C@H](CN)CC(=O)O.Cl [hydrochloride] | % | 100 |
| CC(C)C[C@H](CN)CC(=O)O [Pregabalin, reference compound] | % | 100 |
| CCCCC(C)CC(CN)CC(=O)O (stereo not shown) | % | 80 |
| CCCC[C@H](C)C[C@H](CN)CC(=O)O | % | 0 |

Hello, I would appreciate it if you could give responders at 30 mg/kg for each entry below.
1. CCCC(C)C[C@H](CN)CC(=O)O (stereo partly drawn) [(S)-3-Aminomethyl-5-methyl-octanoic acid]
2. CCCC[C@@H](C)C[C@H](CN)CC(=O)O.Cl [hydrochloride]
3. CCCCC[C@H](C)C[C@H](CN)CC(=O)O
4. CCCC(C)CC(CN)CC(=O)O (stereo not shown)

1. 100
2. 100
3. 20
4. 100

###

Test system: DBA/2 mice
Assay: DBA2 mouse model of anticonvulsant efficacy (sound-induced seizures)
Type: in vivo
Set-up: concentration or dose not given beside the values
Settings: Table 1; 2 br
property: Anticonvulsant % Protect 2 br (%)
One number for each entry, in %.

Look over these answered cases.
| compound | studySystem | Anticonvulsant % Protect 2 br (%) |
| --- | --- | --- |
| CC(C)CC(CN)CC(=O)O (stereo not drawn) [reference compound] | DBA/2 mice | 100 |
| CC[C@@H](C)[C@H](CN)CC(=O)O | DBA/2 mice | 0 |
| CCC(CC)C(CN)CC(=O)O (stereo not drawn) | DBA/2 mice | 20 |
| CCC(CC)CC(CN)CC(=O)O (stereo not drawn) | DBA/2 mice | 20 |
| CCC(C)CC(CN)CC(=O)O (stereo not drawn) | DBA/2 mice | 100 |

Next compound, please.
// query Anticonvulsant % Protect 2 br value for entry CC(C)[C@@H](C)C(CN)CC(=O)O (stereo partly drawn)
100

###

Tested on: DBA/2 mice
Assay: DBA2 mouse model of anticonvulsant efficacy (sound-induced seizures)
Format: in vivo
Settings: Mus musculus; 30 mg/kg PO; 2h; read-out: Anticonvulsant % Protect* 2h
property: responders at 30 mg/kg (%)
Numbers only, in %.

Sample answers from the record:
| compound | studySystem | responders at 30 mg/kg / % |
| --- | --- | --- |
| CCCCCC(C)CC(CN)CC(=O)O (stereo not shown) | DBA/2 mice | 0 |
| CC(Cc1ccccc1)CC(CN)CC(=O)O (stereo not shown) | DBA/2 mice | 0 |
| CCC[C@H](C)C[C@H](CN)CC(=O)O | DBA/2 mice | 20 |

Provide the reported responders at 30 mg/kg of each entry below, same order.
1. CC(CC(CN)CC(=O)O)C(F)(F)F (stereo not shown)
2. CCCCC[C@@H](C)C[C@H](CN)CC(=O)O
3. C=CCC(C)CC(CN)CC(=O)O (stereo not shown)

1: 0; 2: 100; 3: 0
